target: Tubulin (Homo sapiens) (UniProt P68371+Q9H4B7+P0DPH7+P68366+Q13509+Q71U36+P04350+Q3ZCM7+P07437+P68363+Q9BQE3+Q6PEY2+Q13885+Q9BVA1+Q9BUF5); experiment: Inhibition of tubulin (unknown origin) polymerization at 50 uM by turbidometric method relative to control; format: protein-complex assay
TEST_READOUT: inhibition

Q. Given CCCC(Nc1cncc(-c2ccc(NC(=O)NCC)c(C)c2)n1)c1ccccn1 (stereo not given) , state its recorded inhibition.
A. > 50%

Q. Given COc1cc(-c2cncc(NC(C)c3cccc(NC(=O)[C@H]4CCCN4)c3)n2)ccc1O (stereo not given in full) , state its recorded inhibition.
A. > 50%

Q. Given CCCC(Nc1cncc(-c2ccc(NC(=O)NCC)c(OC)c2)n1)c1cccnc1C (stereo not given) , state its recorded inhibition.
A. > 50%

Q. Given CCCC(Nc1cncc(-c2ccc(OCCCN(CC)CC)c(OC)c2)n1)c1ccccc1 (stereo not given) , state its recorded inhibition.
A. > 50%

Q. Given CCC[C@H](Nc1nc(-c2ccc(O)c(OC)c2)ncc1C)c1cccnc1 , state its recorded inhibition.
A. > 50%

Q. Given CCCC(Nc1cncc(-c2ccc(OCCCCO)c(OC)c2)n1)c1ccccc1 (stereo not given) , state its recorded inhibition.
A. > 50%

Q. Given CCCC(Nc1cncc(-c2ccc(OCCN(CC)CC)c(OC)c2)n1)c1ccccc1 (stereo not given) , state its recorded inhibition.
A. > 50%

Q. Given CCCC(Nc1cncc(-c2ccc(OCCCCN3CCCC3)c(OC)c2)n1)c1ccccc1 (stereo not given) , state its recorded inhibition.
A. > 50%

Q. Given CCCC(Nc1cncc(-c2ccc(OCCCCN)c(OC)c2)n1)c1ccccc1 (stereo not given) , state its recorded inhibition.
A. > 50%

Q. Given CCNC(=O)Nc1ccc(-c2ncc(C)c(N[C@@H](CC)c3cccnc3)n2)cc1OC , state its recorded inhibition.
A. > 50%

Reference source for all entries: ChEMBL document CHEMBL3882736
